// peptide exchange yield lookup, one value per entry
MEASUREMENT TARGET: T1, HLA-A*02:01 (peptide-receptive MHC class I monomer after UV cleavage of the UV-sensitive ligand) (human)
T1 construct: MHC monomers loaded by UV-ligand exchange and captured on streptavidin plates
EXPERIMENT DESCRIPTION: UV ligand-exchange ELISA; exchange yield grade (+ >=10%, ++ >=20%, +++ >=50%, ++++ >=75%)

These solved cases illustrate the format of a correct answer.
BINDER: ALEELTGFREL [ALEELTGFREL (SEQ ID NO: 133)]
peptide exchange yield: 20 to 50%
--
BINDER: YLDRLIPQA [YLDRLIPQA (SEQ ID NO: 237)]
peptide exchange yield: 50 to 75%
--
BINDER: SLFAAISGMIL [SLFAAISGMIL (SEQ ID NO: 102)]
peptide exchange yield: 50 to 75%

Q: State its peptide exchange yield: ILSDVTQGL [ILSDVTQGL (SEQ ID NO: 29)]
A: 50 to 75%

Q: Report measured peptide exchange yield; entry is RLAPEIVSA [RLAPEIVSA (SEQ ID NO: 288)]
A: 50 to 75%

Q: For YINEDEYEV [YINEDEYEV (SEQ ID NO: 213)] , write its peptide exchange yield.
A: 20 to 50%
